Origin of measurements: patent US8883963B2

procedure.summary: Stability in human plasma
Type: in vitro ADME
protocol.conditions: 2 μM peptidomimetic, pooled human plasma, 37° C., 24 h
Protocol: Reactions were terminated by the addition of TFA/H2O (15 mL, 10% (v/v)). […] The column was equilibrated with TFA/H20, at a flow rate of 1 mL/min.
Starred links: 1 amine or outer side, 2 acyl side, 3 side chain; linkers in the order of their positions; H or OH if unused. Non-standard residues stand in square brackets, D forms with d. Residues, ends and D or L forms follow the SMILES beside them. ξ: configuration not given here. ξBip(2'-Et-4'-OMe) = CCc1cc(OC)ccc1-c1ccc(CC(N)C(=O)O)cc1; X1 = O=C(C(CCCc1ccc(C(F)(F)F)cc1F)N[*:1])[*:2]; X2 = O=C(C(CCCc1ccccc1Cl)N[*:1])[*:2]; Ac3c = NC1(C(=O)O)CC1; Aib = CC(C)(N)C(=O)O
This listing pairs compounds with measured % degradation of peptidomimetics in 24 h when incubated with human plasma.
readout.kind: % degradation of peptidomimetics in 24 h when incubated with human plasma (%)

compound	uom	recorded.number
CCc1cc(OC)ccc1-c1ccc(CC(NC(=O)[C@H](CC(=O)O)NC(=O)[C@H](CO)NC(=O)[C@@H](NC(=O)C(C)(Cc2ccccc2F)NC(=O)[C@@H](NC(=O)CNC(=O)[C@H](CC(C(F)(F)F)C(F)(F)F)NC(=O)C(C)(C)NC(=O)[C@@H](N)Cc2c[nH]cn2)[C@H](C)O)[C@H](C)O)C(=O)NC(CCCc2ccccc2F)C(N)=O)cc1 (some centres unmarked)	%	71
CCc1cc(OC)ccc1-c1ccc(CC(NC(=O)[C@H](CC(=O)O)NC(=O)[C@H](CO)NC(=O)[C@@H](NC(=O)[C@H](Cc2ccccc2)NC(=O)[C@@H](NC(=O)CNC(=O)[C@H](CCC(N)=O)NC(=O)C(C)(C)NC(=O)[C@@H](N)Cc2c[nH]cn2)[C@@H](C)O)[C@@H](C)O)C(=O)NC(CCCc2ccc(C(F)(F)F)cc2F)C(N)=O)cc1 (some centres unmarked) [compound 65] (H-H[Aib]QGTFTSD[ξBip(2'-Et-4'-OMe)][X1]-NH2)	%	78
CCc1cc(OC)ccc1-c1ccc(CC(NC(=O)[C@H](CC(=O)O)NC(=O)[C@H](CO)NC(=O)[C@@H](NC(=O)[C@H](Cc2ccccc2)NC(=O)[C@@H](NC(=O)CNC(=O)C(CCC#N)NC(=O)C(C)(C)NC(=O)[C@@H](N)Cc2c[nH]cn2)[C@@H](C)O)[C@@H](C)O)C(=O)NC(CCCc2ccc(F)cc2C(F)(F)F)C(N)=O)cc1 (single isomer, unassigned)	%	70
CCc1cc(OC)ccc1-c1ccc(CC(CNC(CCCc2ccccc2)C(N)=O)NC[C@H](CC(=O)O)NC(=O)[C@H](CO)NC(=O)[C@@H](NC(=O)C(C)(Cc2ccccc2F)NC(=O)[C@@H](NC(=O)CNC(=O)[C@H](CCC(N)=O)NC(=O)C(C)(C)NC(=O)[C@H](Cc2c[nH]cn2)NC(=O)OC)[C@H](C)O)[C@H](C)O)cc1 (single isomer, unassigned)	%	00
CCc1cc(OC)ccc1-c1ccc(CC(NC(=O)[C@H](CC(=O)O)NC(=O)[C@H](CO)NC(=O)[C@@H](NC(=O)[C@H](Cc2ccccc2)NC(=O)[C@@H](NC(=O)CNC(=O)[C@H](CCC(N)=O)NC(=O)C2(NC(=O)[C@@H](N)Cc3c[nH]cn3)CC2)[C@@H](C)O)[C@@H](C)O)C(=O)NC(CCCc2ccc(F)cc2C(F)(F)F)C(N)=O)cc1 (single isomer, unassigned)	%	70
CCc1cc(OC)ccc1-c1ccc(CC(NC(=O)[C@H](CC(=O)O)NC(=O)[C@H](CO)NC(=O)[C@@H](NC(=O)C(C)(Cc2ccccc2F)NC(=O)[C@@H](NC(=O)CNC(=O)C(CCC#N)NC(=O)C(C)(C)NC(=O)[C@@H](N)Cc2c[nH]cn2)[C@H](C)O)[C@@H](C)O)C(=O)NC(CCCc2ccccc2F)C(N)=O)cc1 (single isomer, unassigned)	%	00
CCc1cc(OC)ccc1-c1ccc(CC(NC(=O)[C@H](CC(=O)O)NC(=O)[C@H](CO)NC(=O)[C@@H](NC(=O)[C@H](Cc2ccccc2)NC(=O)[C@@H](NC(=O)CNC(=O)[C@H](CCC(N)=O)NC(=O)[C@H](CO)NC(=O)[C@@H](N)Cc2c[nH]cn2)[C@@H](C)O)[C@@H](C)O)C(=O)NC(CCCc2ccc(C(F)(F)F)cc2F)C(N)=O)cc1 (some centres unmarked) [compound 49] (H-HSQGTFTSD[ξBip(2'-Et-4'-OMe)][X1]-NH2)	%	77
CCc1cc(OC)ccc1-c1ccc(CC(NC(=O)[C@H](CC(=O)O)NC(=O)[C@H](CO)NC(=O)[C@@H](NC(=O)[C@H](Cc2ccccc2)NC(=O)[C@@H](NC(=O)CNC(=O)C(CCC#N)NC(=O)C(C)(C)NC(=O)[C@@H](N)Cc2c[nH]cn2)[C@@H](C)O)[C@@H](C)O)C(=O)NC(CCCc2cccc(Cl)c2)C(N)=O)cc1 (single isomer, unassigned)	%	78
CCc1cc(OC)ccc1-c1ccc(CC(NC(=O)[C@H](CC(=O)O)NC(=O)[C@H](CO)NC(=O)[C@@H](NC(=O)C(C)(Cc2ccccc2F)NC(=O)[C@@H](NC(=O)CNC(=O)[C@H](CC(C(F)(F)F)C(F)(F)F)NC(=O)C(C)(C)NC(=O)[C@@H](N)Cc2c[nH]cn2)[C@@H](C)O)[C@@H](C)O)C(=O)NC(CCCc2ccccc2)C(N)=O)cc1 (some centres unmarked)	%	70
CCc1cc(OC)ccc1-c1ccc(CC(NC(=O)[C@H](CC(=O)O)NC(=O)[C@H](CO)NC(=O)[C@@H](NC(=O)[C@H](Cc2ccccc2)NC(=O)[C@@H](NC(=O)CNC(=O)[C@H](CCC(N)=O)NC(=O)C2(C)CCCN2C(=O)[C@@H](N)Cc2c[nH]cn2)[C@@H](C)O)[C@@H](C)O)C(=O)NC(CCCc2ccc(Cl)cc2C)C(N)=O)cc1 (single isomer, unassigned)	%	78
CCc1cc(OC)ccc1-c1ccc(CC(NC(=O)[C@H](CC(=O)O)NC(=O)[C@H](CO)NC(=O)[C@@H](NC(=O)[C@H](Cc2ccccc2)NC(=O)[C@@H](NC(=O)CNC(=O)[C@H](CCC(N)=O)NC(=O)C2(NC(=O)[C@@H](N)Cc3c[nH]cn3)CC2)[C@@H](C)O)[C@@H](C)O)C(=O)NC(CCCc2ccccc2Cl)C(N)=O)cc1 (some centres unmarked) [compound 74] (H-H[Ac3c]QGTFTSD[ξBip(2'-Et-4'-OMe)][X2]-NH2)	%	78
